Values were extracted from paper PMC10306345.

System: vaccinia virus (VACV)
Test: microbe, parasite or virus in culture
Format: cell-based
parameter measured: antiviral activity (in words)

molecule="Cc1ccc2c(Sc3ccc(Br)cc3)c(C(=O)O)[nH]c2c1 [Compound 18c]" target="vaccinia virus (VACV)" parameter_measured="antiviral activity (in words)" test_result="loss of activity"
molecule=Cc1ccc2c(c1)c(Sc1ccc(Cl)cc1)c(C(=O)O)n2C target="vaccinia virus (VACV)" parameter_measured="antiviral activity (in words)" test_result=loss
molecule=Cc1ccc2c(Sc3ccc(C(F)(F)F)cc3[N+](=O)[O-])c(C(=O)O)[nH]c2c1 target="vaccinia virus (VACV)" parameter_measured="antiviral activity (in words)" test_result="loss of activity"

---

Tested on: vaccinia virus (VACV)
Assay: microbe, parasite or virus in culture
Type: cell-based
Conditions: Orthopoxvirus vaccinia, read-out: IC50 (antiviral activity, Table 2)
pIC50: −log10 of the molar value.
parameter measured: pIC50

compound="Cc1ccc2c(Sc3cccc(F)c3)c(C(=O)O)[nH]c2c1 [Compound 18b]" parameter_measured=pIC50 test_result=4.25

---

System: vaccinia virus (VACV)
Experiment: microbe, parasite or virus in culture
Format: cell-based
parameter measured: antiviral activity (in words)

compound="COC(=O)c1[nH]c2cc(C)ccc2c1Sc1cc(Cl)cc(Cl)c1 [Compound 27]" test_result="loss of activity"
compound="CCCCCCNC(=O)CCc1[nH]c2cc(C)ccc2c1Sc1cc(Cl)cc(Cl)c1 [Compound 24e]" test_result="loss of activity"
